molecular target: gB of hCMV isolate TB40E, on virions (human cytomegalovirus isolate TB40E); assay: cell-based or functional assay
Readout Label: 50% neutralising activity, endothelial cells (HUVECs) (µg/mL)
Reply numerically in µg/mL, unit not repeated.

{"Binder": "Ab-14 (antibody, V domains shown, also called Antibody Ab-14; SM3-1 VH with SM3-1 VL) VH: QVQLVQSEAEVEKPGASVKVSCKASGYTFTDYYMNWVRQAPGQGLEWMGCINPHSGGTNYAQKFQGRVTMTRDTSISTAYMELSRLKSDDTAVYYCARDGAKTVTTFGASLLYYYDIMDVWGQGTLVTVSS VL: QSVLTQPPSVSAAPGQKVTISCSGSSSNIGKNYVSWYQHFPGTAPKLLIYDNNKRPSGIPDRFSGSKSGTSATLGITGLQTGDEADYYCATWDRSLSVVFGGGTKVTVL", "Quantitative Result": 1}
{"Binder": "Ab-11 (antibody, V domains shown, also called Antibody Ab-11; SM1-6 VH with SM1-6 VL) VH: QVQLMQSGAEVKKPGASVKVSCKASGYTFTGYYMNWVRQAPGQGLEWMGCINPNSGGTNYAQKFQGRVTMTRDTSISTAYMELTRLRSDDTAVYYCARDGAKTVTTSGMSLLYYYDVMDIWGQGTMVTVSS VL: QSVLTQPPSVSAAPGQKVTISCSGSSSNIGKNYVSWYQQLPGTAPKLLIYDNNKRPSGIPDRFSGSKSGTSATLGITGLQTGDEADYFCGTWDSSLSVVFGGGTKVTVL", "Quantitative Result": 1.3}
{"Binder": "Ab-04 (antibody, V domains shown) VH: QVHLVQSGAEVRKPGASVKVSCKASGYTFTDYYLNWVRQAPGQGLEWMGSINPNTGGTKYAQKFQGRVTMTRDTSIRAAYMELSSLRSDDTAVYYCARDGAKTMTTSGLSLLYYYDVMDVWGQGTLVTVSS VL: QSVLTQPPSVSAAPGQKVTISCSGSSSNIGKNYVSWYQQLPGTAPKLLIDDNNKRPSGIPDRFSGSKSGTSATLGITGLQTGDEADYYCATWDSSLGVVFGGGTKVTVL", "Quantitative Result": 0.4}

Query block: 50% neutralising activity, endothelial cells (HUVECs) for Ab-02 (antibody, V domains shown) VH: QVQLVQPGAEVKKPGASVKVSCKASGFTLSDHYLVWVRQAPGQGFEWMGWINPQSGGTGYAQKFQGRVTMTRDSSSNTAFMDLSKLTSDDTAVYFCARDGAKTVSNSGLGLLYYHSRLDAWGQGTLVTVSS VL: QSVLTQPPSVSAAPGQRVTISCSGSRSNIGKNYVSWYQQPPGTAPKLLIFDNNKRPSGIPDRFSGSKSGTSATLAISGLQAADEADYYCGTWDSSLSVVFGGGTKVTVL ?
Result block: 0.3
